- tgt: GS-TAP-tagged Optn (human) (UniProt Q96CV9)
- Sequence (Q96CV9 whole entry E322K): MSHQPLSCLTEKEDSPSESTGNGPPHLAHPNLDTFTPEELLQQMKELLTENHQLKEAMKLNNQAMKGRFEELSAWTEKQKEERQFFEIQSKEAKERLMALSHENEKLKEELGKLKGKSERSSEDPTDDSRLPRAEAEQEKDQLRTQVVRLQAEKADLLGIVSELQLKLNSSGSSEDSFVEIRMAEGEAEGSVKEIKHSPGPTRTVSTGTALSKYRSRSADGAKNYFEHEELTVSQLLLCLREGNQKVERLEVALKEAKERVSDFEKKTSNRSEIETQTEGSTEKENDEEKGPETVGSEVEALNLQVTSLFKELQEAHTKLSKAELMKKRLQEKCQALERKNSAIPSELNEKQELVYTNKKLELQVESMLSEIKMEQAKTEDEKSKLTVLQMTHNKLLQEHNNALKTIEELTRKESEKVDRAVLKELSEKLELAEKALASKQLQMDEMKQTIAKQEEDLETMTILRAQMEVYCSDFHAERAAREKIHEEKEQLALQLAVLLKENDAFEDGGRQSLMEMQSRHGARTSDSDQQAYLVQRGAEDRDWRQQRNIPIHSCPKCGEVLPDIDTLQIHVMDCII
- testName: TAP of GS-tagged Optn from HEK-293 cells, LC-MSMS
propertyName: unique peptide counts
Number only, no unit.

Known results for substances:
MYOSIN-9. (from UniProt P35579 2-1960) :: 10
HEAT SHOCK 70 KDA PROTEIN 6. (from UniProt P17066 1-643) :: 8
HEAT SHOCK 70 KDA PROTEIN 1L. (from UniProt P34931 1-641) :: 7

Task: Which measured unique peptide counts value corresponds to MYOSIN REGULATORY LIGHT CHAIN. (from UniProt O14950 2-172) ?
Result: 3

Task: Which measured unique peptide counts value corresponds to HEAT SHOCK 70 KDA PROTEIN 1. (from UniProt P0DMV9 2-641) ?
Result: 17

Task: Which measured unique peptide counts value corresponds to ISOFORM 1 OF HEAT SHOCK COGNATE 71 KDA PROTEIN. (from UniProt P11142 2-646) ?
Result: 14

Task: Which measured unique peptide counts value corresponds to ISOFORM 1 OF MYOSIN-10. (from UniProt P35580 1-1976) ?
Result: 7

Task: Which measured unique peptide counts value corresponds to GUANINE NUCLEOTIDE-BINDING PROTEIN G. (from UniProt P08754 2-354) ?
Result: 6
